Molecular target: PI3K β (Homo sapiens, UniProt P42338)
Sequence (P42338 whole entry, one chain of several): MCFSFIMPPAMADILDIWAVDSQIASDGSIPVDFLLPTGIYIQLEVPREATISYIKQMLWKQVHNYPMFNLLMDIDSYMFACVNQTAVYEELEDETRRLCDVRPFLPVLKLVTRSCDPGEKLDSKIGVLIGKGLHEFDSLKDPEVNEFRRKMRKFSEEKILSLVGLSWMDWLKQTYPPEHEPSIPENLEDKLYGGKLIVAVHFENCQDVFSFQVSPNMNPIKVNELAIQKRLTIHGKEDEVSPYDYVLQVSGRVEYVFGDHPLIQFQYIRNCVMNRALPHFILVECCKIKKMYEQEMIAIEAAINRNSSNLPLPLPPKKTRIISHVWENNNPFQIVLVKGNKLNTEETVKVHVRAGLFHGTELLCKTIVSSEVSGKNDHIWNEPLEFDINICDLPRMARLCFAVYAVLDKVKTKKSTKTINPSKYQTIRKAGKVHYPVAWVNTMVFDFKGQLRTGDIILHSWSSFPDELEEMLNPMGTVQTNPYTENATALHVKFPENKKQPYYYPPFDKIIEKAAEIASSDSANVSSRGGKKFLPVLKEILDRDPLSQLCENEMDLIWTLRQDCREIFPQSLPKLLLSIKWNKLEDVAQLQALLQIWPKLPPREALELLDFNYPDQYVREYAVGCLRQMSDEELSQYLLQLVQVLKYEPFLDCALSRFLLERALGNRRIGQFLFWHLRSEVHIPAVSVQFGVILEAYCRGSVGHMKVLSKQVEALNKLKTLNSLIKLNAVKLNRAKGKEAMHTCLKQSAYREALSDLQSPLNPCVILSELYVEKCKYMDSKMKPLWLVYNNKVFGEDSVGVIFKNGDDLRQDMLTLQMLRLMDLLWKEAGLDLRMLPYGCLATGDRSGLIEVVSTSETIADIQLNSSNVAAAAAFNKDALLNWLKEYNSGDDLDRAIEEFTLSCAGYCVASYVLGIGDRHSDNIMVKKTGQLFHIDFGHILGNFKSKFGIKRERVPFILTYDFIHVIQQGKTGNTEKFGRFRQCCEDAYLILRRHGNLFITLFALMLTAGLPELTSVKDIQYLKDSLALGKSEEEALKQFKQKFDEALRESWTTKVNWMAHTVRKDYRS
Kindly supply the reported IC50 values for the records listed here.

Any idea what IC50 was measured for C[C@H](NC(=O)c1c(N)ncc2cccnc12)c1cc2cccc(N3CCOCC3)c2c(=O)n1-c1ccccc1 ? > 10 µM

Any idea what IC50 was measured for Nc1nn2cccnc2c1C(=O)NCc1cc2cccc(Cl)c2c(=O)n1-c1ccccc1 ? > 10 µM

Any idea what IC50 was measured for C[C@H](NC(=O)c1c(N)nn2cccnc12)c1cc2cccc(-c3cccs3)c2c(=O)n1-c1ccccc1 ? 1 to 10 µM

Any idea what IC50 was measured for C[C@H](NC(=O)c1nc(-c2ccc(S(C)(=O)=O)cc2)cnc1N)c1cc2cccc(Cl)c2c(=O)n1-c1ccccc1 ? > 10 µM

Any idea what IC50 was measured for CC(C)Oc1cc(-c2cccc3cc([C@H](C)NC(=O)c4c(N)nn5cccnc45)n(-c4ccccc4)c(=O)c23)ccn1 ? 1 to 10 µM

Any idea what IC50 was measured for C[C@H](NC(=O)c1nc(C#N)cnc1N)c1cc2cccc(Cl)c2c(=O)n1-c1ccccc1 ? 0.1 to 1 µM

Any idea what IC50 was measured for CC(=O)NCC#Cc1cccc2cc([C@H](C)NC(=O)c3c(N)nn4cccnc34)n(-c3ccccc3)c(=O)c12 ? 1 to 10 µM

Any idea what IC50 was measured for CC#Cc1cccc2cc([C@H](C)NC(=O)c3c(N)nn4cccnc34)n(-c3ccccc3)c(=O)c12 ? 1 to 10 µM

Any idea what IC50 was measured for C[C@H](NC(=O)c1c(N)nn2cccnc12)c1cc2cccc(-c3cnn(C)c3)c2c(=O)n1-c1ccccc1 ? > 10 µM

Any idea what IC50 was measured for C[C@H](NC(=O)c1c(N)nn2cccnc12)c1cc2scc(Cl)c2c(=O)n1-c1ccccc1 ? 0.1 to 1 µM

Any idea what IC50 was measured for COc1cccc(-c2cnc(N)c(C(=O)N[C@@H](C)c3cc4cccc(Cl)c4c(=O)n3-c3ccccc3)n2)c1 ? > 10 µM

Any idea what IC50 was measured for C[C@H](NC(=O)c1c(N)nn2cccnc12)c1nn2ccc(Cl)c2c(=O)n1-c1ccccc1 ? > 10 µM

Any idea what IC50 was measured for C[C@H](NC(=O)c1nc(-c2cncc(NS(C)(=O)=O)c2)cnc1N)c1cc2cccc(Cl)c2c(=O)n1C1CC1 ? < 0.1 µM

Any idea what IC50 was measured for C[C@H](NC(=O)c1c(N)nn2cccnc12)c1cc2cccc(C=O)c2c(=O)n1-c1ccccc1 ? 1 to 10 µM

Any idea what IC50 was measured for C[C@H](NC(=O)c1c(N)nn2cccnc12)c1cc2cccc(Cl)c2c(=O)n1C1CC1 ? < 0.1 µM

---

Biological target: UniProt:O00329
Sequence (O00329 whole entry): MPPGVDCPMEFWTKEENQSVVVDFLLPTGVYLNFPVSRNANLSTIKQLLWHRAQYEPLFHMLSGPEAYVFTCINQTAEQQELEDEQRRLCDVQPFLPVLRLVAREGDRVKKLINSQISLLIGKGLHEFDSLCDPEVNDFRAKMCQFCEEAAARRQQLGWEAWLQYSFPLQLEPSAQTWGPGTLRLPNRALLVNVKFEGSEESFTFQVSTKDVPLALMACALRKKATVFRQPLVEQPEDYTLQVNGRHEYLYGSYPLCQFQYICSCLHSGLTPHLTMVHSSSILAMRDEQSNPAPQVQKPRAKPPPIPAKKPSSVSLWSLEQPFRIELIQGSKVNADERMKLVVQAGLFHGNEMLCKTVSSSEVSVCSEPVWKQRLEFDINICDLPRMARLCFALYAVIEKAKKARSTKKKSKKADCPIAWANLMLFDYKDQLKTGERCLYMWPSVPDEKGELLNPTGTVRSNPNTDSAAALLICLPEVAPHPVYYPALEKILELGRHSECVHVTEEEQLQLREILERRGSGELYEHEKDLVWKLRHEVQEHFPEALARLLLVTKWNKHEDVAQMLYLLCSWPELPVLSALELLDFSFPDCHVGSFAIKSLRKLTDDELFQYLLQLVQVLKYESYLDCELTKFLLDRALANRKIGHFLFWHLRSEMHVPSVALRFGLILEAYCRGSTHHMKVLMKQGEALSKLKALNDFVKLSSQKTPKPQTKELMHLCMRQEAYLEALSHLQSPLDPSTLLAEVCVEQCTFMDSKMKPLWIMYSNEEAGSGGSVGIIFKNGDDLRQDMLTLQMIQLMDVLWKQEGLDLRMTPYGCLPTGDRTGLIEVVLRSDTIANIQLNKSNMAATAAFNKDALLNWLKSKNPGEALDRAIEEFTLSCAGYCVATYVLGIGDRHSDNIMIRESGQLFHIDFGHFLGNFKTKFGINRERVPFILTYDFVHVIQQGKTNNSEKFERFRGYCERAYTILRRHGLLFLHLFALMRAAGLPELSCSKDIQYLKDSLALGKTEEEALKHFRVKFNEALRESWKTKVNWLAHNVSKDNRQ
Sequence (P27986 whole entry partner): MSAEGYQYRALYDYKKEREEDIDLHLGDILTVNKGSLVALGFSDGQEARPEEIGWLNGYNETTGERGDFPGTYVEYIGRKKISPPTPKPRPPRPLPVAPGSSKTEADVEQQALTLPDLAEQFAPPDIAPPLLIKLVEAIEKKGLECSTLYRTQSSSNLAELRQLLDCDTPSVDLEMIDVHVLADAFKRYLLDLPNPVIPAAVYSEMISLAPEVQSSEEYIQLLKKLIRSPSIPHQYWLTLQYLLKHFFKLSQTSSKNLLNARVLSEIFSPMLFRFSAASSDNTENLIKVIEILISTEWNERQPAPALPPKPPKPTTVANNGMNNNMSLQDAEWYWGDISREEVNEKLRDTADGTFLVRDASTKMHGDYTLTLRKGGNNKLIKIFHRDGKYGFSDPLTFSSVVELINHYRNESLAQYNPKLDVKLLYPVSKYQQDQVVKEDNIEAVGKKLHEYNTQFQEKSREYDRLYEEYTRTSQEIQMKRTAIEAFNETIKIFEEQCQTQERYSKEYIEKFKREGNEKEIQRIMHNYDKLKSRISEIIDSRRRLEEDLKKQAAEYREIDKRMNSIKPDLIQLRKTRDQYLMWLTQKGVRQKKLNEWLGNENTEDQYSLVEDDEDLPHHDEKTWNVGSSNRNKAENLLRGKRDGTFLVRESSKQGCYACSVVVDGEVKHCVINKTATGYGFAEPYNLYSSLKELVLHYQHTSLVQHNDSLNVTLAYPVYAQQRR
Kindly supply the reported IC50 values for the records listed here.

Query the reported IC50 for UniProt:O00329; item: C[C@H](NC(=O)c1nc(-c2cncc(NS(C)(=O)=O)c2)cnc1N)c1cc2cccc(Cl)c2c(=O)n1C1CC1 < 100 nM

Query the reported IC50 for UniProt:O00329; item: C[C@H](NC(=O)c1c(N)nn2cccnc12)c1cc2cccc(C#N)c2c(=O)n1-c1ccccc1 1000 to 10000 nM

Query the reported IC50 for UniProt:O00329; item: C[C@H](NC(=O)c1c(N)nn2cccnc12)c1c(Br)c2cccc(F)c2c(=O)n1-c1ccccc1 1000 to 10000 nM

Query the reported IC50 for UniProt:O00329; item: C[C@H](NC(=O)c1c(N)nn2cccnc12)c1cc2cccc(CN(C)C)c2c(=O)n1-c1ccccc1 < 100 nM

Query the reported IC50 for UniProt:O00329; item: CC(C)Oc1ccc(-c2cnc(N)c(C(=O)N[C@@H](C)c3cc4cccc(Cl)c4c(=O)n3-c3ccccc3)n2)cc1Cl > 10000 nM

Query the reported IC50 for UniProt:O00329; item: Cc1cc(C)n2nc(N)c(C(=O)N[C@@H](C)c3cc4cccc(Cl)c4c(=O)n3-c3ccccc3)c2n1 1000 to 10000 nM

Query the reported IC50 for UniProt:O00329; item: C[C@H](NC(=O)c1c(N)nn2cccnc12)c1cc2cccc(Cl)c2c(=O)n1-c1cccc(F)c1 100 to 1000 nM

Query the reported IC50 for UniProt:O00329; item: CC(=O)NCC#Cc1cccc2cc([C@H](C)NC(=O)c3c(N)nn4cccnc34)n(-c3ccccc3)c(=O)c12 1000 to 10000 nM

Query the reported IC50 for UniProt:O00329; item: CC(C)Oc1cc(-c2cccc3nc([C@H](C)NC(=O)c4c(N)nn5cccnc45)n(-c4ccccc4)c(=O)c23)ccn1 1000 to 10000 nM

Query the reported IC50 for UniProt:O00329; item: COc1ccc(-c2cccc3cc([C@H](C)NC(=O)c4c(N)nn5cccnc45)n(-c4ccccc4)c(=O)c23)cn1 1000 to 10000 nM

Query the reported IC50 for UniProt:O00329; item: C[C@H](NC(=O)c1c(N)nn2cccnc12)c1cc2sccc2c(=O)n1-c1ccccc1 1000 to 10000 nM

Query the reported IC50 for UniProt:O00329; item: CC(NC(=O)c1c(N)nn2cccnc12)c1cc2cccc(Cl)c2nc1-c1ccccc1 (stereo not shown) 1000 to 10000 nM

Query the reported IC50 for UniProt:O00329; item: C[C@H](NC(=O)c1c(N)nn2cccnc12)c1cc2scc(Cl)c2c(=O)n1-c1ccccc1 100 to 1000 nM

Query the reported IC50 for UniProt:O00329; item: CC[C@H](NC(=O)c1c(N)nn2cccnc12)c1cc2cccc(Cl)c2c(=O)n1-c1ccccc1 < 100 nM

Query the reported IC50 for UniProt:O00329; item: C[C@H](NC(=O)c1c(N)nn2cccnc12)c1cc2cccc(Cl)c2c(=O)n1CC(O)CO (stereo partly shown) 100 to 1000 nM

Query the reported IC50 for UniProt:O00329; item: CC(C)Oc1cc(-c2cccc3cc([C@H](C)NC(=O)c4c(N)nn5cccnc45)n(-c4ccccc4)c(=O)c23)ccn1 1000 to 10000 nM

Query the reported IC50 for UniProt:O00329; item: C[C@H](NC(=O)c1c(N)nn2cccnc12)c1cc2cccc(-c3ccccc3)c2c(=O)n1-c1ccccc1 1000 to 10000 nM

Query the reported IC50 for UniProt:O00329; item: C[C@H](NC(=O)c1cnn2cccnc12)c1cc2cccc(Cl)c2c(=O)n1-c1ccccc1 1000 to 10000 nM

Query the reported IC50 for UniProt:O00329; item: C=CCn1c([C@H](C)NC(=O)c2c(N)nn3cccnc23)cc2cccc(Cl)c2c1=O 100 to 1000 nM

Query the reported IC50 for UniProt:O00329; item: COc1cc(-c2cccc3cc([C@H](C)NC(=O)c4c(N)nn5cccnc45)n(C)c(=O)c23)ccn1 1000 to 10000 nM

Query the reported IC50 for UniProt:O00329; item: C[C@H](NC(=O)c1c(N)nn2cccnc12)c1cc2cccc(-c3cncc(NS(C)(=O)=O)c3)c2c(=O)n1-c1ccccc1 100 to 1000 nM

Query the reported IC50 for UniProt:O00329; item: C[C@H](NC(=O)c1c(N)nn2cccnc12)c1cc2cccc(C#CCNC(=O)[C@H]3CCC(=O)O3)c2c(=O)n1-c1ccccc1 1000 to 10000 nM

Query the reported IC50 for UniProt:O00329; item: C[C@H](NC(=O)c1c(N)ncc2cccnc12)c1cc2cccc(Cl)c2c(=O)n1-c1ccccc1 100 to 1000 nM

Query the reported IC50 for UniProt:O00329; item: C[C@H](NC(=O)c1c(N)nn2cccnc12)c1cc2cccc(Cl)c2c(=O)n1-c1ccc(F)cc1 1000 to 10000 nM

Query the reported IC50 for UniProt:O00329; item: C[C@H](NC(=O)c1c(N)nn2cccnc12)c1cc2cccc(Cl)c2c(=O)n1-c1ccc(F)c(F)c1 1000 to 10000 nM

Query the reported IC50 for UniProt:O00329; item: C[C@H](NC(=O)c1nccnc1N)c1cc2cccc(-c3cccnc3)c2c(=O)n1-c1ccccc1 < 100 nM

Query the reported IC50 for UniProt:O00329; item: C[C@H](NC(=O)c1nc(-c2cncc(NS(C)(=O)=O)c2)cnc1N)c1cc2cccc(Cl)c2c(=O)n1-c1ccccc1 100 to 1000 nM

Query the reported IC50 for UniProt:O00329; item: C[C@H](NC(=O)c1nc(-c2cccc(S(=O)(=O)NC3CC3)c2)cnc1N)c1cc2cccc(Cl)c2c(=O)n1-c1ccccc1 1000 to 10000 nM

---

Biological target: PI3K α (Homo sapiens)
Sequence (P42336 whole entry, one chain of several): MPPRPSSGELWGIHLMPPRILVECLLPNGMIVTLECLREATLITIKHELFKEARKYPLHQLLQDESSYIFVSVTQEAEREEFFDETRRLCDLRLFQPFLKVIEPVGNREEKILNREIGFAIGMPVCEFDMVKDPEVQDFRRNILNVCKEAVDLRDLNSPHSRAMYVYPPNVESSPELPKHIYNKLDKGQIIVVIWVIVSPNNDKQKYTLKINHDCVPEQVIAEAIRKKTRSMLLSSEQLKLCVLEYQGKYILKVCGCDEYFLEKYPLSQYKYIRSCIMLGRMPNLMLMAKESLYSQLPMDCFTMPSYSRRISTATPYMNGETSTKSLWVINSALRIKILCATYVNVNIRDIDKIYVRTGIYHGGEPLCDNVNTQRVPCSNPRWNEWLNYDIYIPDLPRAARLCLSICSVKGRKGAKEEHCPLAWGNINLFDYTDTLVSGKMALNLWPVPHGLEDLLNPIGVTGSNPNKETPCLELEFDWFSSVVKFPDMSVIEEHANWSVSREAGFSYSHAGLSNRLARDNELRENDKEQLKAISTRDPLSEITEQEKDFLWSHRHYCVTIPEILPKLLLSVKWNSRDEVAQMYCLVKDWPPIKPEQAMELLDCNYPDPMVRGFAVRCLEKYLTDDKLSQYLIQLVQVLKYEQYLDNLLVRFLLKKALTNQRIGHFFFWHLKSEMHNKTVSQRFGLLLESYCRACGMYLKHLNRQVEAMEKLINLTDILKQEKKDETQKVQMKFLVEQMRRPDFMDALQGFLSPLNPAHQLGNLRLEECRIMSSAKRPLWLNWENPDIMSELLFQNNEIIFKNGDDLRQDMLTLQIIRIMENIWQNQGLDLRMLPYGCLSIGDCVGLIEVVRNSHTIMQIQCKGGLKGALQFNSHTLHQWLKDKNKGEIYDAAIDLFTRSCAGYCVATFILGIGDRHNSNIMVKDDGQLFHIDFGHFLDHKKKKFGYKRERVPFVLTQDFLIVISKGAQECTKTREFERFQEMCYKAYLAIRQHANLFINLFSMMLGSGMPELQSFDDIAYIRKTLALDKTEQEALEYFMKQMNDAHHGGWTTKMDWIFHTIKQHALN
PARAMETER MEASURED: IC50

Any idea what IC50 was measured for CC(C)Nc1cccc2cc([C@H](C)NC(=O)c3c(N)nn4cccnc34)n(-c3ccccc3)c(=O)c12 ? > 10 µM

Any idea what IC50 was measured for COc1ccc(-c2cnc(N)c(C(=O)N[C@@H](C)c3cc4cccc(Cl)c4c(=O)n3-c3ccccc3)n2)cc1F ? > 10 µM

Any idea what IC50 was measured for C[C@H](NC(=O)c1c(N)nn2cccnc12)c1cc2cccc(Cl)c2c(=O)n1CCN(C)C ? > 10 µM

Any idea what IC50 was measured for C[C@H](NC(=O)c1nc(-c2cccc(NS(C)(=O)=O)c2)cnc1N)c1cc2cccc(Cl)c2c(=O)n1-c1ccccc1 ? 1 to 10 µM
